Source listed as ChEMBL document CHEMBL4387740.

# assay info: AUC (0 to infinity) in Beagle dog at 1 mg/kg, po
# Assay type: ADME, organism-based, Canis lupus familiaris
# Set-up: dose 1 mg/kg, time infinity, route oral
# condition set: in vivo
value kind: AUC(0-inf) (ng·h/mL)
Provide only the numeric value, understood in ng·h/mL.

Problem: May I ask what AUC(0-inf) has been recorded for O=C(NC1CC1)C(=O)C(Cc1ccccc1)NC(=O)[C@H]1CCC(=O)N1Cc1ccccc1 (stereo partly specified) ?
Solution: 1510

* * *

# tested target: Calpain-1 catalytic subunit (Homo sapiens, UniProt P07384)
# Sequence (P07384 whole entry): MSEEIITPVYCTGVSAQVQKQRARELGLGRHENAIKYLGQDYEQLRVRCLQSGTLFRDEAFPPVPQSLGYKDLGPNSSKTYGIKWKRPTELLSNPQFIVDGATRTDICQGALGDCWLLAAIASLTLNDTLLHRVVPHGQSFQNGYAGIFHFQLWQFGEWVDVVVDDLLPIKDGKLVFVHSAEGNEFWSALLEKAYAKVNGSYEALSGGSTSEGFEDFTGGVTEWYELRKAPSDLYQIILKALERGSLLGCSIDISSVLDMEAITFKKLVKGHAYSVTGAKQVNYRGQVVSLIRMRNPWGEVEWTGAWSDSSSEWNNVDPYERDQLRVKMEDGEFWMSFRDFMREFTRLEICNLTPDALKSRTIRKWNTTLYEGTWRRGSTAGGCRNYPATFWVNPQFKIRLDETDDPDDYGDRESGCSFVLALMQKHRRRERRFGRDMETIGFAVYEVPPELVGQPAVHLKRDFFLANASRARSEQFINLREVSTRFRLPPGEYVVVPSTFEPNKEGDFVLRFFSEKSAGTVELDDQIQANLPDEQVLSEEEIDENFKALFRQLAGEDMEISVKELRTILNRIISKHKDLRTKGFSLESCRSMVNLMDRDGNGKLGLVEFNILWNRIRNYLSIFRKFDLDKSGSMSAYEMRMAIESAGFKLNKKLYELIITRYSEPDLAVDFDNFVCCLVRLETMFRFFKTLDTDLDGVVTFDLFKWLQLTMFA
# assay info: Inhibition of Cal1 (unknown origin)
value kind: Ki

Problem: May I ask what Ki has been recorded for O=C(NC1CCC1)C(=O)C(Cc1ccccc1)NC(=O)[C@H]1CCC(=O)N1Cc1ccccc1 (stereo partly specified) ?
Solution: 110 nM

Problem: May I ask what Ki has been recorded for NC(=O)C(=O)C(Cc1ccccc1)NC(=O)C1CCS(=O)(=O)N1Cc1ccccc1 (mixture of isomers) ?
Solution: 268 nM

Problem: May I ask what Ki has been recorded for NC(=O)C(=O)C(Cc1ccccc1)NC(=O)[C@H]1CCC(=O)N1Cc1cccc(C(F)(F)F)c1 (mixture of isomers) ?
Solution: 26 nM

Problem: May I ask what Ki has been recorded for CN1C[C@H](C(=O)NC(Cc2ccccc2)C(=O)C(N)=O)N(Cc2ccccc2)C1=O (mixture of isomers) ?
Solution: 101 nM

Problem: May I ask what Ki has been recorded for O=C(NC1CC1)C(=O)C(Cc1ccccc1)NC(=O)[C@H]1CCC(=O)N1C1Cc2ccccc2C1 (stereo partly specified) ?
Solution: 545 nM

Problem: May I ask what Ki has been recorded for O=C(Nc1ccccc1)C(=O)C(Cc1ccccc1)NC(=O)[C@H]1CCC(=O)N1Cc1ccccc1 (stereo partly specified) ?
Solution: 70 nM

Problem: May I ask what Ki has been recorded for C[C@H]1C[C@H](C(=O)NC(Cc2ccccc2)C(=O)C(N)=O)N(Cc2ccccc2)C1=O (mixture of isomers) ?
Solution: 50 nM

Problem: May I ask what Ki has been recorded for COc1cccc(C(F)(F)F)c1CN1C(=O)CC[C@@H]1C(=O)NC(Cc1ccccc1)C(=O)C(N)=O (mixture of isomers) ?
Solution: 36 nM

Problem: May I ask what Ki has been recorded for CCNC(=O)C(=O)C(Cc1ccccc1)NC(=O)[C@H]1CCC(=O)N1Cc1ccccc1 (mixture of isomers) ?
Solution: 165 nM

Problem: May I ask what Ki has been recorded for CCCCC(NC(=O)[C@H]1CCC(=O)N1Cc1ccccc1)C(=O)C(N)=O (mixture of isomers) ?
Solution: 46 nM

Problem: May I ask what Ki has been recorded for NC(=O)C(=O)C(Cc1ccccc1)NC(=O)[C@H]1CCC(=O)N1Cc1ccccc1C(F)(F)F (mixture of isomers) ?
Solution: 59 nM

Problem: May I ask what Ki has been recorded for O=C(NC1CC1)C(=O)C(Cc1ccccc1)NC(=O)[C@H]1CCC(=O)N1Cc1ccccc1 (stereo partly specified) ?
Solution: 130 nM

Problem: May I ask what Ki has been recorded for O=C(NC1CC1)C(=O)C(Cc1ccccc1)NC(=O)[C@H]1CCC(=O)N1Cc1ccccc1C(F)(F)F (stereo partly specified) ?
Solution: 90 nM

Problem: May I ask what Ki has been recorded for NC(=O)C(=O)C(Cc1ccccc1)NC(=O)[C@H]1CCCC(=O)N1Cc1ccccc1 (mixture of isomers) ?
Solution: 64 nM

Problem: May I ask what Ki has been recorded for O=C1CC[C@H](C(=O)NC(Cc2ccccc2)C(=O)C(=O)NC2CC2)N1 (stereo partly specified) ?
Solution: 9700 nM

Problem: May I ask what Ki has been recorded for NC(=O)C(=O)C(Cc1ccccc1)NC(=O)c1cccc(=O)n1Cc1ccccc1 (stereo unspecified) ?
Solution: 82 nM

Problem: May I ask what Ki has been recorded for O=C(NC1CC1)C(=O)C(Cc1ccccc1)NC(=O)[C@H]1CCC(=O)N1Cc1ccccc1Cl (stereo partly specified) ?
Solution: 73 nM

Problem: May I ask what Ki has been recorded for Cc1ccc(S(=O)(=O)N2CCC[C@@H]2C(=O)NC(Cc2ccccc2)C(=O)C(N)=O)cc1 (mixture of isomers) ?
Solution: 129 nM

Problem: May I ask what Ki has been recorded for NC(=O)C(=O)C(Cc1ccccc1)NC(=O)[C@H]1CCC(=O)N1Cc1cccc(OC(F)(F)F)c1 (mixture of isomers) ?
Solution: 125 nM

Problem: May I ask what Ki has been recorded for CC(C)(C)CN1C(=O)CC[C@@H]1C(=O)NC(Cc1ccccc1)C(=O)C(N)=O (mixture of isomers) ?
Solution: 1350 nM

Problem: May I ask what Ki has been recorded for NC(=O)C(=O)C(Cc1ccccc1)NC(=O)[C@H]1CCC(=O)N1CC1CCCCC1 (mixture of isomers) ?
Solution: 200 nM

Problem: May I ask what Ki has been recorded for NC(=O)C(=O)C(Cc1ccccc1)NC(=O)[C@@H]1CCC(=O)N1Cc1ccccc1 (mixture of isomers) ?
Solution: 528 nM

Problem: May I ask what Ki has been recorded for Cn1cc(CN2C(=O)CC[C@@H]2C(=O)NC(Cc2ccccc2)C(=O)C(=O)NC2CN2)cn1 (stereo partly specified) ?
Solution: 530 nM

Problem: May I ask what Ki has been recorded for NC(=O)C(=O)C(Cc1ccccc1)NC(=O)[C@H]1CCC(=O)N1Cc1ccccc1OC(F)(F)F (mixture of isomers) ?
Solution: 57 nM

Problem: May I ask what Ki has been recorded for NC(=O)C(=O)C(Cc1ccccc1)NC(=O)[C@H]1CCC(=O)N1c1ccccc1 (mixture of isomers) ?
Solution: > 1350 nM

Problem: May I ask what Ki has been recorded for NC(=O)C(=O)C(Cc1ccccc1)NC(=O)[C@H]1CCC(=O)N1Cc1ccccc1 (mixture of isomers) ?
Solution: 39 nM

* * *

I'd be grateful if you could share measured Selectivity ratio for these entries.
# Species: Homo sapiens
# assay info: Selectivity ratio, ratio of Ki for CatB (unknown origin) to Ki for Cal1 (unknown origin)
Response field accepts a number only; no unit should be typed.

Problem: May I ask what Selectivity ratio has been recorded for Cc1ccc(S(=O)(=O)N2CCC[C@@H]2C(=O)NC(Cc2ccccc2)C(=O)C(N)=O)cc1 (mixture of isomers) ?
Solution: 72

Problem: May I ask what Selectivity ratio has been recorded for NC(=O)C(=O)C(Cc1ccccc1)NC(=O)C1CCS(=O)(=O)N1Cc1ccccc1 (mixture of isomers) ?
Solution: 56

Problem: May I ask what Selectivity ratio has been recorded for NC(=O)C(=O)C(Cc1ccccc1)NC(=O)[C@H]1CCCC(=O)N1Cc1ccccc1 (mixture of isomers) ?
Solution: 14

Problem: May I ask what Selectivity ratio has been recorded for CCCCC(NC(=O)[C@H]1CCC(=O)N1Cc1ccccc1)C(=O)C(N)=O (mixture of isomers) ?
Solution: 4

* * *

# assay info: Apparent permeability in human Caco2 cells
# Assay type: ADME, cell-based
# condition set: Caco-2, read-out: permeability
value kind: Papp (×10⁻⁶ cm/s)
Provide only the numeric value, understood in ×10⁻⁶ cm/s.

Problem: May I ask what Papp has been recorded for O=C(NC1CC1)C(=O)C(Cc1ccccc1)NC(=O)[C@H]1CCC(=O)N1Cc1ccccc1 (stereo partly specified) ?
Solution: 9.4

* * *

# assay info: Plasma clearance in Beagle dog at 1 mg/kg, iv
# Format: ADME, organism-based, Canis lupus familiaris
value kind: clearance (mL/min/kg)
Provide only the numeric value, understood in mL/min/kg.

Problem: May I ask what clearance has been recorded for O=C(NC1CC1)C(=O)C(Cc1ccccc1)NC(=O)[C@H]1CCC(=O)N1Cc1ccccc1 (stereo partly specified) ?
Solution: 10.2
